target: CYP2D6 (Homo sapiens); test: Inhibition of CYP2D6 in human liver microsomes assessed as decrease in formation of dextrorphan from dextromethorphan substrate at 5 uM after 30 mins by LC-MS/MS; type: ADME, Microsome; conditions: probe dextromethorphan
Sequence (P10635 whole entry): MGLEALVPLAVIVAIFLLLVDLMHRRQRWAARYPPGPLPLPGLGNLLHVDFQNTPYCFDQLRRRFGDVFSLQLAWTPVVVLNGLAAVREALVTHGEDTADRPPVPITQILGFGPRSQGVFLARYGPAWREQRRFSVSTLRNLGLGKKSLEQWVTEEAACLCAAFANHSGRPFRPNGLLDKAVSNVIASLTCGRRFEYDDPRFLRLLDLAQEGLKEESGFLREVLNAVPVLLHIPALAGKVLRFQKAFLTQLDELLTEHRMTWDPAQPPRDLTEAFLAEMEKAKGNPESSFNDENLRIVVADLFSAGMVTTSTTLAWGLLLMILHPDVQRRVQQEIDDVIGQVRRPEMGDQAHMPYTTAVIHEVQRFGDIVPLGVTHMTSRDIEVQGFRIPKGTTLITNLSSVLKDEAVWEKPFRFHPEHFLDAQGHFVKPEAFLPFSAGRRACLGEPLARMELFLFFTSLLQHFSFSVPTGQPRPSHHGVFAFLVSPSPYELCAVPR
EXPERIMENTAL ENDPOINT: inhibition at 0.5 h, 5 µM (%)

> print(dat)
                                   compound  unit.string  test.value
1  C1=N/C2=N/c3ccc(OCCN4CCCC4)c(c3)COC/C=C/COCc3cccc(c3)C(=C1)N2 (mixture of isomers)            %          20

###

experiment: Terminal half life in Beagle dog at 3 mg/kg, po administered via gelatin capsule as single dose; assay type: ADME, organism-based, Canis lupus familiaris; design: dose 3 mg/kg, route oral; conditions: in vivo, read-out: beta t1/2 (converted)
EXPERIMENTAL ENDPOINT: half-life (h)

> print(dat)
                                   compound  experimental.endpoint  unit.string  test.value
1  C1=N/C2=N/c3ccc(OCCN4CCCC4)c(c3)COC/C=C/COCc3cccc(c3)C(=C1)N2 (mixture of isomers) [PACRITINIB]              half-life            h         3.4

Reference for the values: ChEMBL document CHEMBL2176955
